The next entries give measured IC50 for CYP 2E1 (Homo sapiens).
readout: IC50

# compound, recorded-result
rows = [
    ("CC1CS(=O)(=O)CCN1n1cc(SCC(N)C(=O)O)ccc1=O (stereo not drawn)", "> 20 µM"),
    ("CC1CS(=O)(=O)CCN1N (stereo not drawn)", "> 100 µM"),
    ("CC1CS(=O)(=O)CCN1/N=C/c1ccc([N+](=O)[O-])o1 (stereo not drawn) [Nifurtimox, reference compound]", "> 50 µM"),
]

---

# IC50 annotations
Biological target: CYP 3A4 (Homo sapiens, UniProt P08684)
Sequence (P08684 whole entry): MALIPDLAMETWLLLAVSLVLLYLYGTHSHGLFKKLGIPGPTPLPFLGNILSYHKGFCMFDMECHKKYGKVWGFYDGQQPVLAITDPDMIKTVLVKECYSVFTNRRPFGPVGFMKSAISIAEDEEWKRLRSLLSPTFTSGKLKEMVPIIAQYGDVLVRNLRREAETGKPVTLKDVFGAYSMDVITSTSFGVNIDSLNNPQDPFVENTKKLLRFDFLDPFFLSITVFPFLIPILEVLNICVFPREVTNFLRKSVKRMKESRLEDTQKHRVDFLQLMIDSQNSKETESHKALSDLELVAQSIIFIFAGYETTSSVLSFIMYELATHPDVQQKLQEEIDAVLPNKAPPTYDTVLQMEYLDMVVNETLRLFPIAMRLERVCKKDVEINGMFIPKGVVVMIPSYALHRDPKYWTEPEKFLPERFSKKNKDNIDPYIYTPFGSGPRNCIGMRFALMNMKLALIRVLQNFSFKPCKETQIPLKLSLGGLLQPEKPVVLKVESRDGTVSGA
Experiment: CYP inhibition with probe substrates
Assay type: in vitro ADME
Settings: 3A4 (M), coincubation, probe substrate midazolam; read-out: Co- IC50

# molecule, IC50
data = [
    ("CC1CS(=O)(=O)CCN1n1cc(SCC(N)C(=O)O)ccc1=O (stereo not drawn) [M-4]", "> 2e-05 M"),
    ("CC1CS(=O)(=O)CCN1/N=C/c1ccc([N+](=O)[O-])o1 (stereo not drawn) [Nifurtimox, reference compound]", "> 5e-05 M"),
    ("CC1CS(=O)(=O)CCN1N (stereo not drawn) [M-6]", "> 0.0001 M"),
]
